Data provenance: patent US20220112288A1

Entries and their kon values follow.
target: T1, Rhesus macaque CD4-HIS (Acro Biosystems, Cat. CD4-C52H7) (rhesus macaque, UniProt P16003 26-390); test: BLI (Octet Red384); Ab on anti-mouse Fc (AMC) sensor; rhesus CD4-HIS 100/50/25 nM; global 1:1 fit;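 further: antibodies loaded at 10 µg/mL, an unrelated mouse-derived antibody served as internal reference, curves fit over association and dissociation phases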
T1 construct: Bought reagent; also called Rhesus CD4; rhesus CD4-HIS; not shown: His tag
T1 sequence (P16003 26-390 limits assumed): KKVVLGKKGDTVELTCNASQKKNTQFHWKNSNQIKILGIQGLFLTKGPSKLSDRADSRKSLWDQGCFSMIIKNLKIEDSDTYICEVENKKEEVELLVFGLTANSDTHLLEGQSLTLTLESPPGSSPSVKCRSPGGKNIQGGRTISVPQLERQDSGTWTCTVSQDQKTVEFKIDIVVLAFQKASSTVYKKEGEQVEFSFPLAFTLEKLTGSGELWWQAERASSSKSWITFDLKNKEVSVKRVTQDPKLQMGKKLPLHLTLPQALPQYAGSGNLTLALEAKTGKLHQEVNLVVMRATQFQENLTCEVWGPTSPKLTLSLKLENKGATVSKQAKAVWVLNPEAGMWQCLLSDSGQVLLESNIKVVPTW
Record the value in M⁻¹ s⁻¹, omitting the unit from your answer.

These recorded examples may help you get a feel for the data.
1. 75110_13P21A (antibody, V domains shown, Tested as antibody purified from AlivaMab Mouse hybridoma supernatant (human variable domains, kappa; mouse Fc, captured on anti-mouse IgG Fc sensors); also called ADS75110 purified AMM Ab) VH: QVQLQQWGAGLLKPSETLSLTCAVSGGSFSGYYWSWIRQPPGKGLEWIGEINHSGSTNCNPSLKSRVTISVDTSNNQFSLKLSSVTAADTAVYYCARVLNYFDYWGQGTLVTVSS VL: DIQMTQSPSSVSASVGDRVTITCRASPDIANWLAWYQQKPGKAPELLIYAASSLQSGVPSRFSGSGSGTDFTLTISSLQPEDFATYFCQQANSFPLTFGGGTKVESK    170000
2. 75110_12H17A (antibody, V domains shown, Tested as antibody purified from AlivaMab Mouse hybridoma supernatant (human variable domains, kappa; mouse Fc, captured on anti-mouse IgG Fc sensors); also called ADS75110 purified AMM Ab) VH: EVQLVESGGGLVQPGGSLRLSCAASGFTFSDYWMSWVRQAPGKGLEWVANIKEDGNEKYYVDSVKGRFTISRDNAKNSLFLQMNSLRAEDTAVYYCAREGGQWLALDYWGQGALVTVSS VL: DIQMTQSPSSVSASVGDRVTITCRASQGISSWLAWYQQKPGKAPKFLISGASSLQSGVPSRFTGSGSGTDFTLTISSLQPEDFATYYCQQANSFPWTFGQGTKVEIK    150000

Now for the binder whose kon we want.
Ask | State the recorded kon for this entry: 75110_10N21A (antibody, V domains shown, Tested as antibody purified from AlivaMab Mouse hybridoma supernatant (human variable domains, kappa; mouse Fc, captured on anti-mouse IgG Fc sensors); also called ADS75110 purified AMM Ab) VH: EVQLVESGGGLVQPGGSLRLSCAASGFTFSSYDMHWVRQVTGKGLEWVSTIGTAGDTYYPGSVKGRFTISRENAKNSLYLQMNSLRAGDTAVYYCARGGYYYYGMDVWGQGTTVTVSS VL: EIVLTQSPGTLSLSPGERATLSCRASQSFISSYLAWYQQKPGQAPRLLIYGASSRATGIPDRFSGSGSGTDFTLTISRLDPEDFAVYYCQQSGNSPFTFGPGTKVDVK
Reply | 130000
